TARGET_OR_TEST_SYSTEM: DLG1_1, Q12959
ASSAY_NOTES: holdup assay
Set-up: key: below the threshold = too weak to quantify, mostly under pKd 3.1 to 4
CONDITION_LABEL: plain residues with an end cap or a label only (N-terminal biotin on a linker: ado-ado)
ASSAY_READOUT: pKd

Examples from the recorded data:
Please look up its pKd: SRPHTNETSL [MCC, P23508]
3.72

For DSEEELPTRL [GRK6, P43250] , what is its reported pKd?
below the threshold

# pKd lookup, item SQDPKKPSRV [CBY2, Q8NA61]
below the threshold

Could you share which pKd value was measured for RDYTQSSSSL [GRM5, P41594] ?
below the threshold

Quick check: pKd of RSPVATATSC [DUSP5, Q16690] ?
below the threshold

What measured pKd goes with IGHEDLETAV [DGKI, O75912] ?
4.51

Requested read-out: pKd. Entry: QKNKDREYYV [NRXN3, Q9HDB5]
below the threshold

--- query ---
What value of pKd has been reported for the following binder? AHGSTRDQSI [KCNB1, Q14721]
below the threshold
